- System: Raji
- measurement.description: Inhibition of TPA-induced EBV-early antigen activation in human Raji cells at 500 molar ratio relative to TPA
- Format: cell-based
- Design: scale not given: the % may be the effect or the level left
- run.parameters: human gammaherpesvirus 4
measurement.type: Activity (%)

>>> quantitative_result("COc1cc(-c2oc3cc(O)cc(O)c3c(=O)c2O[C@@H]2O[C@H](CO[C@@H]3O[C@@H](C)[C@H](O)[C@@H](O)[C@H]3O)[C@@H](O)[C@H](O)[C@H]2O[C@@H]2O[C@@H](C)[C@H](O)[C@@H](O)[C@H]2O)ccc1O")
64.8
>>> quantitative_result("CCCCOC(=O)[C@H]1O[C@@H](O[C@H]2CC[C@]3(C)[C@H]4CC=C5[C@@H]6CC(C)(C)CC[C@]6(C(=O)O[C@@H]6O[C@H](CO)[C@@H](O)[C@H](O)[C@H]6O)CC[C@@]5(C)[C@]4(C)CC[C@H]3C2(C)C)[C@H](O)[C@@H](O)[C@@H]1O")
48.1
>>> quantitative_result("O=c1c(O[C@@H]2O[C@H](CO)[C@@H](O)[C@H](O)[C@H]2O)c(-c2ccc(O)c(O)c2)oc2cc(O)cc(O)c12")
58
>>> quantitative_result("COC(=O)[C@H]1O[C@@H](O[C@H]2CC[C@]3(C)[C@H]4CC=C5[C@@H]6CC(C)(C)CC[C@]6(C(=O)O[C@@H]6O[C@H](CO)[C@@H](O)[C@H](O)[C@H]6O)CC[C@@]5(C)[C@]4(C)CC[C@H]3C2(C)C)[C@H](O[C@@H]2O[C@H](CO)[C@@H](O)[C@H](O)[C@H]2O)[C@@H](O[C@@H]2O[C@H](CO)[C@H](O)[C@H](O)[C@H]2O)[C@@H]1O")
53.6
>>> quantitative_result("CCCCOC(=O)[C@H]1O[C@@H](O[C@H]2CC[C@]3(C)[C@H]4CC=C5[C@@H]6CC(C)(C)CC[C@]6(C(=O)O[C@@H]6O[C@H](CO)[C@@H](O)[C@H](O)[C@H]6O)CC[C@@]5(C)[C@]4(C)CC[C@H]3C2(C)C)[C@H](O[C@@H]2O[C@H](CO)[C@@H](O)[C@H](O)[C@H]2O)[C@@H](O[C@@H]2O[C@H](CO)[C@H](O)[C@H](O)[C@H]2O)[C@@H]1O")
43.2
>>> quantitative_result("CCCCOC(=O)[C@H]1O[C@@H](O[C@H]2CC[C@]3(C)[C@H]4CC=C5[C@@H]6CC(C)(C)CC[C@]6(C(=O)O)CC[C@@]5(C)[C@]4(C)CC[C@H]3C2(C)C)[C@H](O[C@@H]2O[C@H](CO)[C@@H](O)[C@H](O)[C@H]2O)[C@@H](O[C@@H]2O[C@H](CO)[C@H](O)[C@H](O)[C@H]2O)[C@@H]1O")
49.3
>>> quantitative_result("COc1cc(-c2oc3cc(O)cc(O)c3c(=O)c2O[C@@H]2O[C@H](CO)[C@@H](O)[C@H](O)[C@H]2O[C@@H]2O[C@@H](C)[C@H](O)[C@@H](O)[C@H]2O)ccc1O")
60
>>> quantitative_result("CC1(C)CC[C@]2(C(=O)O[C@@H]3O[C@H](CO)[C@@H](O)[C@H](O)[C@H]3O)CC[C@]3(C)C(=CC[C@@H]4[C@@]5(C)CC[C@H](O[C@@H]6O[C@H](C(=O)O)[C@@H](O)[C@H](O[C@@H]7O[C@H](CO)[C@H](O)[C@H](O)[C@H]7O)[C@H]6O)C(C)(C)[C@@H]5CC[C@]43C)[C@@H]2C1 [CALENDULAGYCOSIDE C]")
51
>>> quantitative_result("COC(=O)[C@H]1O[C@@H](O[C@H]2CC[C@]3(C)[C@H]4CC=C5[C@@H]6CC(C)(C)CC[C@]6(C(=O)O)CC[C@@]5(C)[C@]4(C)CC[C@H]3C2(C)C)[C@H](O)[C@@H](O[C@@H]2O[C@H](CO)[C@H](O)[C@H](O)[C@H]2O)[C@@H]1O")
47.2

* * *

- Test system: CAKI-1
- measurement.description: Cytotoxicity against human Caki-1 cells after 48 hrs by SRB assay
- Assay type: functional
- run.parameters: CAKI-1, 48 h
measurement.type: GI50 (µM)

>>> quantitative_result("COC(=O)[C@H]1O[C@@H](O[C@H]2CC[C@]3(C)[C@H]4CC=C5[C@@H]6CC(C)(C)CC[C@]6(C(=O)O)CC[C@@]5(C)[C@]4(C)CC[C@H]3C2(C)C)[C@H](O)[C@@H](O[C@@H]2O[C@H](CO)[C@H](O)[C@H](O)[C@H]2O)[C@@H]1O")
12.2
>>> quantitative_result("CCCCOC(=O)[C@H]1O[C@@H](O[C@H]2CC[C@]3(C)[C@H]4CC=C5[C@@H]6CC(C)(C)CC[C@]6(C(=O)O)CC[C@@]5(C)[C@]4(C)CC[C@H]3C2(C)C)[C@H](O[C@@H]2O[C@H](CO)[C@@H](O)[C@H](O)[C@H]2O)[C@@H](O[C@@H]2O[C@H](CO)[C@H](O)[C@H](O)[C@H]2O)[C@@H]1O")
33.4
>>> quantitative_result("CCCCOC(=O)[C@H]1O[C@@H](O[C@H]2CC[C@]3(C)[C@H]4CC=C5[C@@H]6CC(C)(C)CC[C@]6(C(=O)O[C@@H]6O[C@H](CO)[C@@H](O)[C@H](O)[C@H]6O)CC[C@@]5(C)[C@]4(C)CC[C@H]3C2(C)C)[C@H](O)[C@@H](O)[C@@H]1O")
17.2
